molecular target: Hexose transporter 1 (Plasmodium falciparum) (UniProt O97467); experiment: ST_JUDE_LEISH: Cytotoxicity at 2uM final concentration against transgenic Leishmania Mexicana promastigotes LmPfHT that are glucose transport deficient and complemented with the Plasmodium falciparum hexose transporter. Activity is measured by DNA content using SYBR green in vitro; assay type: functional
parameter: inhibition (%)
Hi! Could you send only the number? It should be in %, unit omitted.

Record excerpt, results attached:
compound	target	scale unit	inhibition
Cc1c(C(=O)Nc2cc(Sc3ccc(F)cc3)cc([N+](=O)[O-])c2)sc2ncn(Cc3ccccc3F)c(=O)c12	Hexose transporter 1 (Plasmodium falciparum) (UniProt O97467)	%	9.11
O=C(NCCN1Cc2ccccc2C1=O)c1ccc(Oc2ccc(C(=O)NCCN3Cc4ccccc4C3=O)cc2)cc1	Hexose transporter 1 (Plasmodium falciparum) (UniProt O97467)	%	0.02
N=C(N)NCCCCN(Cc1ccccc1)c1ccccc1	Hexose transporter 1 (Plasmodium falciparum) (UniProt O97467)	%	3.53
FC(F)(F)c1ccc2[nH]c(-c3ccc(-c4ccc(CN5CCN(c6ccncc6)CC5)cc4)s3)nc2c1	Hexose transporter 1 (Plasmodium falciparum) (UniProt O97467)	%	-1.36
Cc1ccc2[nH]c(C)cc(=NN=Cc3ccccc3F)c2c1	Hexose transporter 1 (Plasmodium falciparum) (UniProt O97467)	%	12.6

Exercise: // inhibition lookup, key: Cc1c(Cc2ccc(C(C)C)cc2)cnc2nc(N)nc(N)c12
Solution: 0.5

Exercise: # repeat for COc1ccc(-c2ccc(S(=O)(=O)Nc3cc4c(cc3OC(C)C)CCNCC4)cc2)cc1
Solution: -1.7

Exercise: # repeat for O=C(/C=C/c1ccc(Cl)c(Cl)c1)NCCCCCN1CCC(NC(=O)c2ccc(F)cc2)CC1
Solution: 3.16

Exercise: # repeat for CCN(CC)S(=O)(=O)n1ncc2c3c(N)nc(N)nc3ccc21
Solution: 0.17

----------
biological target: Solute carrier family 2, facilitated glucose transporter member 1 (Homo sapiens); experiment: ST_JUDE_LEISH: Cytotoxicity at 2uM final concentration against transgenic Leishmania Mexicana promastigotes LmGLUT1 that are glucose transport deficient and complemented with the human glucose transporter GLUT1. Activity is measured by DNA content using SYBR green in vitro; assay type: functional
Recorded measurements of inhibition, one per entry
Hi! Could you send only the number? It should be in %, unit omitted.

Exercise: // inhibition lookup, key: O=C1C(=Cc2cc(Cc3ccccc3)ccc2O)SC(=S)N1Cc1ccccc1
Solution: 8.42

Exercise: # repeat for COc1ccc(NC(=O)c2cc(-c3ccc(NC(C)=O)cc3)cnc2N)cc1
Solution: 2.25

Exercise: # repeat for CN1CCC(NC(=O)c2cc(Oc3ccc4c(c3)CCN4C(=O)Nc3cccc(C(F)(F)F)c3)ccn2)CC1
Solution: 3.67

Exercise: # repeat for CCc1ccc(C2CCN(CCCCNC(=O)c3ccc(-c4ccc(C(F)(F)F)cc4)cc3)CC2)c(OCCO)c1
Solution: 7.26

Exercise: # repeat for COCCNCc1ccc(-c2ccc3c(Nc4ccc(F)cc4Cl)ccnc3c2)o1
Solution: 4.1

----------
molecular target: Hexose transporter 1 (Plasmodium falciparum) (UniProt O97467); test: ST_JUDE_LEISH: Cytotoxicity at 2uM final concentration against transgenic Leishmania Mexicana promastigotes LmPfHT that are glucose transport deficient and complemented with the Plasmodium falciparum hexose transporter. Activity is measured by DNA content using SYBR green in vitro; format: functional
Recorded measurements of inhibition, one per entry
Hi! Could you send only the number? It should be in %, unit omitted.

molecule	target	measured result
CC(C)c1ccc(NC(=O)c2ccc(C(=O)NC3CCN(Cc4ccsc4)C3)cc2)cc1 (centres undefined)	Hexose transporter 1 (Plasmodium falciparum) (UniProt O97467)	4.64
Cc1cccc(Nc2nc(C)cc(N3CCCN(CC4CCCCC4)CC3)n2)c1	Hexose transporter 1 (Plasmodium falciparum) (UniProt O97467)	1.98
CNC(=O)C1Cc2c([nH]c3c(C)cccc23)C2(N1)C(=O)Nc1ccc(OC(F)(F)F)cc12 (centres undefined)	Hexose transporter 1 (Plasmodium falciparum) (UniProt O97467)	1.59
CC(=O)Nc1cccc(Nc2nccc(Nc3ccc(Oc4ccccc4)cc3)n2)c1	Hexose transporter 1 (Plasmodium falciparum) (UniProt O97467)	2.76
CCNc1cc(C(=O)N[C@@H](Cc2ccccc2)[C@H](O)CNC2(CCC(C)C)CC2)cc(N2CCCCS2(=O)=O)c1	Hexose transporter 1 (Plasmodium falciparum) (UniProt O97467)	-0.04
Cc1cc(=NN=Cc2ccc(Cl)cc2)c2cc(F)ccc2[nH]1	Hexose transporter 1 (Plasmodium falciparum) (UniProt O97467)	0.68
Cc1cc([N+](=O)[O-])ccc1NC(=O)Nc1cccc(C(F)(F)F)c1	Hexose transporter 1 (Plasmodium falciparum) (UniProt O97467)	3.9
CCCC(C)NC[C@@H](O)[C@H](Cc1ccccc1)NC(=O)c1cc(C2CCCC2)cc(N2CCCCS2(=O)=O)c1 (some centres undefined)	Hexose transporter 1 (Plasmodium falciparum) (UniProt O97467)	3.66

Exercise: // inhibition lookup, key: COc1cccc(OC(C)(C)c2nc(N[C@@H](C)c3ccccc3)c3cn[nH]c3n2)c1
Solution: -1.84
